- protocolSummary: amyloid nucleation score (Sup35N fusion, yeast selection) (log enrichment); library NNK2; higher = more nucleation; inactive = no reads after selection;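 also: zero at mode of non-aggregating sequences after 7 days selection at 30°C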
measure: amyloid nucleation score

LDWPDLENQAVVVNTWVSE 0.279
GGQLGGPWPANSLYNVTAVT -0.075
YNSYVVRMGTI -0.417
AAQIHYSKYNDDVYFSFEEK 0.283
DTCWEGCLTKTYFW -1.29
SQVERVQFTGIRKWYGAGRS 4.57
RYSRFSDQSMFSRPYA 0.333
ACSDGVAMECKV -0.429
AYINRHVEWRCTVRTVALSS 0.664
LYFRYWVMDSQASNFHRCRG -0.14
AVVFSNCGCFSMKFYMVVAT -2.06
TIMYYVWCLFFWMCLGYGHS 1.53
MFNYINYYSYHFEFSKCFVR 2.26
AVWCDFHSERAMCVVGM 5.25
LFKDMYSDLKHILNCGFQTT -0.711
RCIDFDSSCASTNYGSVLWA 1.09
IRYNLGGDQLG -0.805
CRRGDLKDDEIYAMHLHRVS -1.12
SDPKLFCAIKAGNTQLGVES 0.634
SSYLTIPIIRVFLR 0.126
RWPNLSDAQVWAPTSQLLSS 0.92
RFLEALTVRHCSPL 4.71
PRDRLSSGPLQWHGFIIGYV 0.676
FKCNIYYSFRYGSI 7.18
SMQLDSFCVICGWFALVGLV 6.67
VPKAWTVWAQVPINWSARQA 0.737
RDVFTFYNKGEFERCQTLVY 0.092
TYLGNLYIMRFRAVLREPLV 0.077
TRFTYCFVVRNLVTRNRPIS -0.646
SHRFADILDCV 0.518
FGWLALTKR -1.16
PLGSMTNDTTDRNFEVSGRG -0.106

====

- protocolSummary: amyloid nucleation score (Sup35N fusion, yeast selection) (log enrichment); library NNK1; higher = more nucleation; inactive = no reads after selection
just bin them by amyloid nucleation score: low band = under 0.1, middle band = from 0.1 up to 0.6, high band = 0.6 and over

LLVNGLMGMWPIFII low band
HLWRVRLV low band
RYICVTFISLGELPFYWWFT low band
NNGPIPNILKEL middle band
AFVEGRMNHPYSGTMLSRRG middle band
NPNFDRGQRSLQLDIMVKWR high band
IFTVTGNCTGGAHTQDVVWF middle band
LWFAHNS middle band
CYSKKVLHCFKTSCLTLQVT high band
TTVGNVFSGVHV low band
RLSGKFFICVGLKCVIWLRG low band
ESQLVTAYEH middle band
VCTNRYGPCSPS high band
DMKNYVPVLLGNTMIMLWGL high band
SNNVFMAVNSSQRIQQFMLA high band
YYIMYYAGSFIRGEMVHRLT low band
RWLHVIKL high band
NNRIRRGGSVSVVMTVCDMD high band
IWALKVWLRLTYCHICFRVV middle band
FATYWVHDMAWRMSGVQMSV middle band
EKWGGGVM low band
LCTLTVNYRSEHSYFYCINF low band
MDSDRVRPDESSVGLN high band
ERPSRN middle band
VASYFGLVRNSNLDLYLHCR low band
YKEQGTPHLLYADYEARRDG high band
NWEKVNLLTLRNTFRCSSRA high band
QLDINN middle band
RYILLVYVTCDRKVRAMKGV high band
SGKCIFSFE low band
CSDCARIGLMSRCGDETW middle band
RCYIDYSVEFRLHMIKMKTR low band
IVTEVGGVVDEYARWPVGMT high band
LDSAYSGGKCYTWFNIRRFV middle band
FRTYIFP low band

Origin of the recorded values: the supplement of paper PMC12042874
